Would you kindly list MIC for each of these compounds?
- Test system: Escherichia coli (E. coli) strain CFT073 ATCC 700928
- Format: cell-based
- reportedConditions: ATCC 700928, 22 h
One number for each entry, in µM.

Worked examples, 2 compounds total:
CCCCCC[C@H]1OC(=O)CNC(=O)[C@H]([C@H](C)O)NC(=O)[C@H]([C@H](C)N)NC(=O)[C@H](C2CCCCC2)NC(=O)[C@H](CC(C)C)N(C)C(=O)[C@@H]1C: 3.2
CCCCCCCCCC[C@H]1OC(=O)CNC(=O)[C@H](COCCOCCN)NC(=O)[C@H](CO)NC(=O)[C@H]([C@@H](C)CC)NC(=O)[C@H](CC(C)C)N(C)C(=O)[C@@H]1C: 19

Below is a list of compounds. For each, state its recorded MIC.
1. CCCCCC[C@H]1OC(=O)CNC(=O)[C@H]([C@H](C)O)NC(=O)[C@H](CN)NC(=O)[C@H](C2CCCCC2)NC(=O)[C@H](CC(C)C)N(C)C(=O)[C@@H]1Cc1ccc(OC)cc1
2. CCCCCC[C@H]1OC(=O)CNC(=O)[C@H]([C@@H](O)CO)NC(=O)[C@H](CN)NC(=O)[C@H](C2CCCCC2)NC(=O)[C@H](CC(C)C)N(C)C(=O)[C@@H]1C
3. CCCCCCCCCC[C@H]1OC(=O)CNC(=O)[C@H](CCO)NC(=O)[C@H](CO)NC(=O)[C@H]([C@@H](C)CC)NC(=O)[C@H](CC(C)C)N(C)C(=O)[C@@H]1C

-- reply
1: 12; 2: 3.1; 3: 13

Where do the numbers come from? From patent US11279735B2.
